system: CDKL1; conditions: concentration: 1 μM, replicates: in singlicate; n = 1;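 further: KINOMEscan kinase panel screen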
Threshold rule: %Inh greater than or equal to 20% is label 1; below that, label 0.

These recorded examples may help you get a feel for the data.
{"molecule": "CN(c1ccc(NC(=O)Nc2cc(C(F)(F)F)ccc2F)cc1)c1ccnc(Nc2ccc(S(N)(=O)=O)cc2)n1", "cat": "label 1"}
{"molecule": "Cc1ccc(C)c(NC(=O)NC2CCN(c3ccnc(Nc4ccc(F)cc4)n3)C2)c1 (centres unmarked)", "cat": "label 0"}
{"molecule": "CN1CCN(Cc2cccc(-c3ccc4c(Nc5ccc(Oc6ccccc6)cc5)ccnc4c3)c2)CC1", "cat": "label 0"}

Reported %Inh at or above 20%? "Cc1cccc(NC(=O)Nc2ccc(Oc3ncnc4ccn(C)c34)cc2)c1" label 0

Reported %Inh at or above 20%? "FC(F)(F)c1ccc(/C=C/c2cncnc2Nc2ccc3[nH]c(Cc4ccccc4)nc3c2)cc1" label 1

Reported %Inh at or above 20%? "COc1cccc(C(=O)Nc2cccc(Oc3ccc4nc(NC(=O)C5CC5)cn4n3)c2)c1" label 1

Reported %Inh at or above 20%? "COC(=O)Nc1nc2ccc(Oc3ccc(NC(=O)Nc4cc(C(F)(F)F)ccc4F)cc3)cc2n1C.Cl" label 0
